- Target: S-adenosylmethionine synthetase (MAT 1 and MAT 2) (Rattus norvegicus) (UniProt P13444+P18298)
- Procedure Text: Relative inhibitory potency T/II in rat methionine adenosyltransferase
List of Inhibition potency T/II values.

# Compound, Inhibition potency T/II
records = [
    ("CC(OP(=O)(O)OP(=O)(O)OP(=O)(O)O)[C@H]1O[C@@H](n2cnc3c(N)ncnc32)[C@H](O)[C@@H]1O (stereo partly drawn)", 2.4),
    ("CO[C@H]1[C@@H](O)[C@H](n2cnc3c(N)ncnc32)O[C@@H]1COP(=O)(O)OP(=O)(O)OP(=O)(O)O", 0.95),
    ("CSc1nc2c(N)ncnc2n1[C@@H]1O[C@H](COP(=O)(O)OP(=O)(O)OP(=O)(O)O)[C@@H](O)[C@H]1O", 0.5),
]

====

List of Inhibition potency values.
- Target: S-adenosylmethionine synthetase (MAT 1 and MAT 2) (Rattus norvegicus) (UniProt P13444+P18298)
- Procedure Text: Inhibitory potency against rat methionine adenosyltransferase was reported
- Type: protein assay

# Molecule, Inhibition potency
data = [
    ("CO[C@H]1[C@@H](O)[C@H](n2cnc3c(N)ncnc32)O[C@@H]1COP(=O)(O)OP(=O)(O)OP(=O)(O)O", 0.78),
    ("CO[C@@H]1[C@H](O)[C@@H](COP(=O)(O)OP(=O)(O)OP(=O)(O)O)O[C@H]1n1cnc2c(N)ncnc21", 0.82),
    ("CC(OP(=O)(O)OP(=O)(O)OP(=O)(O)O)[C@H]1O[C@@H](n2cnc3c(N)ncnc32)[C@H](O)[C@@H]1O (some centres undefined)", 1.75),
    ("CCCC(OP(=O)(O)OP(=O)(O)OP(=O)(O)O)[C@H]1O[C@@H](n2cnc3c(N)ncnc32)[C@H](O)[C@@H]1O (some centres undefined)", 3.78),
]

====

- Target: S-adenosylmethionine synthetase (MAT 1 and MAT 2) (Rattus norvegicus) (UniProt P13444+P18298)
- Procedure Text: Relative inhibitory potency T/II in rat methionine adenosyltransferase
List of Inhibition potency T/II values.

# Compound, Inhibition potency T/II
records = [
    ("CO[C@@H]1[C@H](O)[C@@H](COP(=O)(O)OP(=O)(O)OP(=O)(O)O)O[C@H]1n1cnc2c(N)ncnc21", 0.82),
    ("Nc1ncnc2c1ncn2[C@@H]1O[C@H](COP(=O)(O)OP(=O)(O)NP(=O)(O)O)[C@@H](O)[C@H]1O", 1.4),
    ("CSc1nc(N)c2ncn([C@@H]3O[C@H](COP(=O)(O)OP(=O)(O)OP(=O)(O)O)[C@@H](O)[C@H]3O)c2n1", 5.5),
    ("Nc1ncnc2c1ncn2[C@@H]1O[C@H](COP(=O)(O)CP(=O)(O)OP(=O)(O)O)[C@@H](O)[C@H]1O", 0.89),
    ("CNc1nc2c(N)ncnc2n1C1O[C@H](COP(=O)(O)OP(=O)(O)OP(=O)(O)O)[C@@H](O)[C@H]1O (some centres not stated)", 0.69),
    ("CCCCNc1ncnc2c1ncn2C1O[C@H](COP(=O)(O)OP(=O)(O)OP(=O)(O)O)[C@@H](O)[C@H]1O (some centres not stated)", 2.5),
    ("CCCC(OP(=O)(O)OP(=O)(O)OP(=O)(O)O)[C@H]1O[C@@H](n2cnc3c(N)ncnc32)[C@H](O)[C@@H]1O (some centres not stated)", 1.3),
]

Every entry's value here was drawn from ChEMBL document CHEMBL1123521.
